Reported IC50 is given for each of the following compounds.
target: Polyunsaturated fatty acid 5-lipoxygenase (Homo sapiens); test: Inhibition of human recombinant 5-lipoxygenase assessed as arachidonic acid oxidation
Sequence (P09917 whole entry): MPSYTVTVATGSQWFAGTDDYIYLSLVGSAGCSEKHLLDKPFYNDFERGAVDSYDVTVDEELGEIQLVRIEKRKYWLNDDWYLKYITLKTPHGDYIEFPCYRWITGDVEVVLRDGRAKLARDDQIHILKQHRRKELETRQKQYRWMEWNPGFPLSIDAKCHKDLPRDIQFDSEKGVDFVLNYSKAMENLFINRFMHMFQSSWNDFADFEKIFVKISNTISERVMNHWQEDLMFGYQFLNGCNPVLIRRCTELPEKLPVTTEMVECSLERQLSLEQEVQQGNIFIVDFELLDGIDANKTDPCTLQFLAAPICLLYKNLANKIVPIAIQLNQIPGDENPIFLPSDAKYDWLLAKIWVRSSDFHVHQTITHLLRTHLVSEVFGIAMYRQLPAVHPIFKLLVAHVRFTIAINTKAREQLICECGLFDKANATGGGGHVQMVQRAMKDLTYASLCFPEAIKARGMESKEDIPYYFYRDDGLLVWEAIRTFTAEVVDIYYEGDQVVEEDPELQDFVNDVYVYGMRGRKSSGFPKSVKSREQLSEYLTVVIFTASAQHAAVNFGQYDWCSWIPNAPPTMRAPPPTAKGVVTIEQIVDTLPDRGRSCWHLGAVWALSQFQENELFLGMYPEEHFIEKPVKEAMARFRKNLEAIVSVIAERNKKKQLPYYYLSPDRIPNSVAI
Hi! Could you send only the number? It should be in µM, unit omitted.

Below, each entry is followed by its recorded IC50 result.
[[record]]
compound = "CCC(O)(c1cn(Cc2ccc3c(-c4ccccc4)c(C(=O)NC)sc3c2)nn1)C(F)(F)F (stereo not given)"
readout_value = 0.223

[[record]]
compound = "CC[C@](O)(c1cn(Cc2ccc3c(-c4cccc(F)c4)c(C(N)=O)sc3c2)nn1)C(F)(F)F"
readout_value = 0.039


Turning now to a further compound:
Record request: IC50 value, item CC[C@@](O)(c1cn(Cc2ccc3c(-c4ccc(F)cc4)c(C(N)=O)sc3c2)nn1)C(F)(F)F
1.16

Reference source: ChEMBL document CHEMBL1287744
